- System: 857933-349-R-J2-PDC complex spheroid viability
- Test protocol: Anticancer human tumor 857933-349-R-J2-PDC patient-derived colon adenocarcinoma cell line growth inhibition [POLQ]
- Test settings: curve of first compound; second compound 1 µM
Readout label: IC50

Example compounds with recorded IC50:
Report IC50 for CCc1cc2c(N3CCc4c(cc(Cn5ccnc5)cc4-c4cn(C)nc4C(F)(F)F)C3=O)cc(C)nc2c(OC)n1 + Cc1cccc(N(C)C(=O)C2C(O)CCN2c2nc(C)cc(C(F)(F)F)c2C#N)c1 please. > 10 µM

Report IC50 for O=C(c1cc(Cc2n[nH]c(=O)c3ccccc23)ccc1F)N1CCN(C(=O)C2CC2)CC1 + Cc1cccc(N(C)C(=O)C2C(O)CCN2c2nc(C)cc(C(F)(F)F)c2C#N)c1 please. > 10 µM

Report IC50 for CCc1cc2c(N3CCc4c(cc(Cn5ccnc5)cc4-c4cn(C)nc4C(F)(F)F)C3=O)ccnc2c(OC)n1 + Cc1cccc(N(C)C(=O)C2C(O)CCN2c2nc(C)cc(C(F)(F)F)c2C#N)c1 please. > 10 µM

Report IC50 for C=CCn1c(=O)c2cnc(Nc3ccc(N4CCN(C)CC4)cc3)nc2n1-c1cccc(C(C)(C)O)n1 + Nc1ccc(C#CCN(C(=O)Cc2ncc(C(F)(F)F)cc2C(F)(F)F)c2ccc(F)cc2)nn1 please. > 1 µM

Report IC50 for CC[C@@]1(O)C(=O)OCc2c1cc1n(c2=O)Cc2cc3c(CN(C)C)c(O)ccc3nc2-1 + COC1C(OC(N)=O)C(O)C(Oc2ccc3c(O)c(NC(=O)c4ccc(O)c(CC=C(C)C)c4)c(=O)oc3c2C)OC1(C)C please. > 0.1 µM

Look up IC50 for the entries below, preserving their order.
1. COc1cccc(OCCCN)c1-c1cc(Nc2cnc(C#N)cn2)n[nH]1 + Cc1cccc(N(C)C(=O)C2C(O)CCN2c2nc(C)cc(C(F)(F)F)c2C#N)c1
2. O=C(Nc1ccc(O)c(NS(=O)(=O)c2ccc(F)cc2)c1)c1ccc(-c2ccccc2)cc1 + COC1C(OC(N)=O)C(O)C(Oc2ccc3c(O)c(NC(=O)c4ccc(O)c(CC=C(C)C)c4)c(=O)oc3c2C)OC1(C)C
3. COc1cc2cc(C(=O)CCC(=O)O)sc2cc1OC + Cc1cccc(N(C)C(=O)C2C(O)CCN2c2nc(C)cc(C(F)(F)F)c2C#N)c1

1: > 1 µM; 2: > 10 µM; 3: > 10 µM

###

I'd appreciate it if you could supply viability, T/C values for the items below.
- Tested on: 857933-349-R-J2-PDC complex spheroid viability
- Test protocol: Anticancer human tumor 857933-349-R-J2-PDC cell line growth inhibition [POLQ];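 also: spheroids exposed to compounds for seven days before readout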
- Test settings: second compound 1 µM; first compound 0.316 µM; stronger effect = lower value
One number for each entry, in %.

Look up viability, T/C for the entries below, preserving their order.
1. O=C(Nc1ccc(O)c(NS(=O)(=O)c2ccc(F)cc2)c1)c1ccc(-c2ccccc2)cc1 + COC1C(OC(N)=O)C(O)C(Oc2ccc3c(O)c(NC(=O)c4ccc(O)c(CC=C(C)C)c4)c(=O)oc3c2C)OC1(C)C
2. C#Cc1c(F)ccc2cc(O)cc(-c3ncc4c(N5CC6CCC(C5)N6)nc(OCC56CCCN5CC(F)C6)nc4c3F)c12 (stereo unspecified) + COC1C(OC(N)=O)C(O)C(Oc2ccc3c(O)c(NC(=O)c4ccc(O)c(CC=C(C)C)c4)c(=O)oc3c2C)OC1(C)C
3. C=CC(=O)N1CCN(c2nc(=O)n(-c3c(C)ccnc3C(C)C)c3nc(-c4c(O)cccc4F)c(F)cc23)C(C)C1 (stereo unspecified) + COC1C(OC(N)=O)C(O)C(Oc2ccc3c(O)c(NC(=O)c4ccc(O)c(CC=C(C)C)c4)c(=O)oc3c2C)OC1(C)C
4. CC1COCCN1c1cc(C2(S(C)(=N)=O)CC2)nc(-c2ccnc3[nH]ccc23)n1 (stereo unspecified) + COC1C(OC(N)=O)C(O)C(Oc2ccc3c(O)c(NC(=O)c4ccc(O)c(CC=C(C)C)c4)c(=O)oc3c2C)OC1(C)C
5. CC1COCCN1c1cc(C2(O)CC3CCC(C2)O3)c2cnn(-c3ccn[nH]3)c2n1 (stereo unspecified) + Cc1cccc(N(C)C(=O)C2C(O)CCN2c2nc(C)cc(C(F)(F)F)c2C#N)c1
6. O=c1[nH]cc(F)c(=O)[nH]1 + Cc1cccc(N(C)C(=O)C2C(O)CCN2c2nc(C)cc(C(F)(F)F)c2C#N)c1
7. COc1cccc2c1C(=O)c1c(O)c3c(c(O)c1C2=O)CC(O)(C(=O)CO)CC3OC1CC(N)C(O)C(C)O1 (stereo unspecified) + COC1C(OC(N)=O)C(O)C(Oc2ccc3c(O)c(NC(=O)c4ccc(O)c(CC=C(C)C)c4)c(=O)oc3c2C)OC1(C)C

81.1
79.3
81.3
79.1
38.4
77.4
45.6
